Taken from patent US7071231B2.

Test system: 3T3 L1 fibroblasts
assay method text: Glucose transport activity assay (14C-2-deoxy-D-glucose uptake)
Assay type: cell-based
recorded conditions: EC (effective concentration) for increase in glucose transport; 14C-2-deoxy-D-glucose, 3T3 L1 cells; read-out: Concentration (μM) to reach >150% activity of vehicle control
Below, each of the compounds is paired with its reported EC (150% of vehicle control) value.
Give just the numeric value; µM need not be written.

>  <line notation>
CCOC(=O)COc1cc(S(=O)(=O)O)cc2cc(NC(=O)Nc3ccc4c(O)cc(S(=O)(=O)O)cc4c3)ccc12.N.N

>  <target desc>
3T3 L1 fibroblasts

>  <EC (150% of vehicle control) (µM)>
32

$$$$

Query: // EC (150% of vehicle control) lookup, key: N#CN=C(Nc1ccc2ccc(NS(=O)(=O)c3ccc(Cl)c(C(=O)O)c3)cc2c1)Nc1ccc2ccc(NS(=O)(=O)c3ccc(Cl)c(C(=O)O)c3)cc2c1
Reply: 3.2

Query: // EC (150% of vehicle control) lookup, key: COC(=O)c1cc(S(=O)(=O)Nc2ccc3ccc(NC(=NC#N)Nc4ccc5ccc(NS(=O)(=O)c6ccc(Cl)c(C(=O)OC)c6)cc5c4)cc3c2)ccc1Cl
Reply: 3.2

---

Below, each of the molecules is paired with its reported EC (150% of vehicle control) value.
Test system: 3T3 L1 fibroblasts
assay method text: Glucose transport activity assay (14C-2-deoxy-D-glucose uptake)
Type: cell-based
recorded conditions: Mus musculus, 3T3-L1, read-out: Concentration (μM) to reach >150% activity of vehicle control
Counter-ions that a name gives are not always drawn.

Recorded results for 4 molecules are shown here.
>  <molecule>
CCOP(=O)(O)c1cccc(NS(=O)(=O)c2ccc3ccc(NC(=O)Nc4ccc5ccc(S(=O)(=O)Nc6cccc(P(=O)(O)OCC)c6)cc5c4)cc3c2)c1

>  <target desc>
3T3 L1 fibroblasts

>  <EC (150% of vehicle control)>
3.2 µM

$$$$
>  <molecule>
CN(c1cccc(S(=O)(=O)O)c1)S(=O)(=O)c1ccc2ccc(NC(=O)Nc3ccc4ccc(S(=O)(=O)N(C)c5cccc(S(=O)(=O)O)c5)cc4c3)cc2c1 [Compound 103, dipotassium salt]

>  <target desc>
3T3 L1 fibroblasts

>  <EC (150% of vehicle control)>
3.2 µM

$$$$
>  <molecule>
O=C(Nc1ccc2ccc(S(=O)(=O)Nc3ccc([N+](=O)[O-])c(C(=O)O)c3)cc2c1)Nc1ccc2ccc(S(=O)(=O)Nc3ccc([N+](=O)[O-])c(C(=O)O)c3)cc2c1

>  <target desc>
3T3 L1 fibroblasts

>  <EC (150% of vehicle control)>
3.2 µM

$$$$
>  <molecule>
O=C(Nc1ccc2c(O)cc(S(=O)(=O)O)cc2c1)Nc1ccc2c(O)cc(S(=O)(=O)O)cc2c1 [Compound 4, disodium salt]

>  <target desc>
3T3 L1 fibroblasts

>  <EC (150% of vehicle control)>
32 µM

$$$$

Read the next record carefully.
Query: Hello, I am looking for reported EC (150% of vehicle control) with 3T3 L1 fibroblasts for O=C(Nc1ccc2ccc(S(=O)(=O)Nc3cccc([N+](=O)[O-])c3)cc2c1)Nc1ccc2ccc(S(=O)(=O)Nc3cccc([N+](=O)[O-])c3)cc2c1 . Could you help?
Reply: 3.2 µM

---

target desc: β-kinase domain of the human insulin receptor (CKD) (Homo sapiens)
Construct: The complete β-kinase domain of the human insulin receptor (CKD) was expressed in, and purified from, baculovirus; made in house
assay method text: 32P-cytoplasmic kinase domain (CKD) autophosphorylation assay
Format: biochemical
recorded conditions: phosphorylation of CKD expressed as % of the vehicle level; 10 minutes at room temperature; compound concentration not given
quantity measured: % Activity vs. Control (%)
Give just the numeric value; % need not be written.

Recorded results for 5 compounds are shown here.
>  <compound>
COc1cc(S(=O)(=O)O)cc2cc(NC(=O)Nc3ccc4c(O)cc(S(=O)(=O)O)cc4c3)ccc12 [Compound 98]

>  <% Activity vs. Control, %>
166

$$$$
>  <compound>
COC(=O)c1ccc(NS(=O)(=O)c2cc(O)c3ccc(NC(=O)Nc4ccc5c(O)cc(S(=O)(=O)O)cc5c4)cc3c2)cc1 [Compound 26]

>  <% Activity vs. Control, %>
124

$$$$
>  <compound>
CCOC(=O)COc1cc(S(=O)(=O)O)cc2cc(NC(=O)Nc3ccc4c(OCC(=O)OCC)cc(S(=O)(=O)O)cc4c3)ccc12.N.N [Compound 95]

>  <% Activity vs. Control, %>
101

$$$$
>  <compound>
Cc1ccc(OS(=O)(=O)c2cccc(NS(=O)(=O)c3cc(O)c4ccc(NC(=O)Nc5ccc6c(O)cc(S(=O)(=O)Nc7cccc(S(=O)(=O)Oc8ccc(C)cc8)c7)cc6c5)cc4c3)c2)cc1 [Compound 11]

>  <% Activity vs. Control, %>
96

$$$$
>  <compound>
O=C(Nc1ccc2c(O)cc(S(=O)(=O)O)cc2c1)Nc1ccc2c(O)cc(S(=O)(=O)Nc3ccc(C(=O)O)cc3)cc2c1 [Compound 28]

>  <% Activity vs. Control, %>
124

$$$$

Read the next record carefully.
Query: // % Activity vs. Control lookup, key: O=C(Nc1ccc2c(O)cc(S(=O)(=O)Nc3cccc(C(=O)O)c3)cc2c1)Nc1ccc2c(O)cc(S(=O)(=O)Nc3cccc(C(=O)O)c3)cc2c1 [Compound 42]
Reply: 124

---

target desc: β-kinase domain of the human insulin receptor (CKD) (Homo sapiens, UniProt P06213)
Construct: The complete β-kinase domain of the human insulin receptor (CKD) was expressed in, and purified from, baculovirus; made in house
Sequence (P06213 980-1382 limits assumed): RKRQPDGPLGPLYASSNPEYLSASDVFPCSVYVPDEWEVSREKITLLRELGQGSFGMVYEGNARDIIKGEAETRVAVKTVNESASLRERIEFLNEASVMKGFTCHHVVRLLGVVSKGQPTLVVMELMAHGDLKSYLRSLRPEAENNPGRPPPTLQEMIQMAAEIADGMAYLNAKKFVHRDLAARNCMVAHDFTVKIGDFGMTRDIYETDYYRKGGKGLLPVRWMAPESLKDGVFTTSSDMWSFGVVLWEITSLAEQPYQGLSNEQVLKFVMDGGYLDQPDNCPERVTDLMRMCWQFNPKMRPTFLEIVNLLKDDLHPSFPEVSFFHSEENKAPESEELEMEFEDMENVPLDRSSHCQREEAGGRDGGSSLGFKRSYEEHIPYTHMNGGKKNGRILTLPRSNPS
assay method text: 32P-cytoplasmic kinase domain (CKD) autophosphorylation assay
Assay type: biochemical
recorded conditions: phosphorylation of CKD expressed as % of the vehicle level; 10 minutes at room temperature; compound concentration not given
Counter-ions that a name gives are not always drawn.
quantity measured: % Activity vs. Control (%)
Give just the numeric value; % need not be written.

>  <molecule>
O=C(Nc1ccc2c(O)cc(S(=O)(=O)O)cc2c1)Nc1ccc2c(O)cc(S(=O)(=O)Nc3cccc(S(=O)(=O)O)c3)cc2c1 [Compound 14]

>  <quantity measured>
% Activity vs. Control

>  <unit symbol>
%

>  <reported measurement>
110

$$$$
>  <molecule>
O=C(Nc1ccc2ccc(S(=O)(=O)O)cc2c1)Nc1ccc2ccc(S(=O)(=O)O)cc2c1 [Compound 3, disodium salt]

>  <quantity measured>
% Activity vs. Control

>  <unit symbol>
%

>  <reported measurement>
88

$$$$
>  <molecule>
O=C(Nc1ccc2ccc(S(=O)(=O)Nc3cccc(S(=O)(=O)O)c3)cc2c1)Nc1ccc2ccc(S(=O)(=O)Nc3cccc(S(=O)(=O)O)c3)cc2c1 [Compound 13, disodium salt]

>  <quantity measured>
% Activity vs. Control

>  <unit symbol>
%

>  <reported measurement>
135

$$$$
>  <molecule>
O=C(Nc1ccc2c(O)cc(S(=O)(=O)Nc3cccc(S(=O)(=O)O)c3)cc2c1)Nc1ccc2c(O)cc(S(=O)(=O)Nc3cccc(S(=O)(=O)O)c3)cc2c1 [Compound 15]

>  <quantity measured>
% Activity vs. Control

>  <unit symbol>
%

>  <reported measurement>
125

$$$$
>  <molecule>
Cc1ccc(OS(=O)(=O)c2cccc(NS(=O)(=O)c3ccc4ccc(NC(=O)Nc5ccc6ccc(S(=O)(=O)Nc7cccc(S(=O)(=O)Oc8ccc(C)cc8)c7)cc6c5)cc4c3)c2)cc1 [Compound 9]

>  <quantity measured>
% Activity vs. Control

>  <unit symbol>
%

>  <reported measurement>
118

$$$$
>  <molecule>
COC(=O)c1ccc(NS(=O)(=O)c2cc(O)c3ccc(NC(=O)Nc4ccc5c(O)cc(S(=O)(=O)Nc6ccc(C(=O)OC)cc6)cc5c4)cc3c2)cc1 [Compound 27]

>  <quantity measured>
% Activity vs. Control

>  <unit symbol>
%

>  <reported measurement>
112

$$$$
>  <molecule>
O=C(Nc1ccc2ccc(S(=O)(=O)Nc3cccnc3)cc2c1)Nc1ccc2ccc(S(=O)(=O)Nc3cccnc3)cc2c1 [Compound 77]

>  <quantity measured>
% Activity vs. Control

>  <unit symbol>
%

>  <reported measurement>
171

$$$$
>  <molecule>
O=C(Nc1ccc2ccc(S(=O)(=O)Nc3cccc(C(=O)O)c3)cc2c1)Nc1ccc2ccc(S(=O)(=O)Nc3cccc(C(=O)O)c3)cc2c1 [Compound 40]

>  <quantity measured>
% Activity vs. Control

>  <unit symbol>
%

>  <reported measurement>
130

$$$$
>  <molecule>
CCOC(=O)COc1cc(S(=O)(=O)O)cc2cc(NC(=O)Nc3ccc4c(O)cc(S(=O)(=O)O)cc4c3)ccc12.N.N [Compound 94]

>  <quantity measured>
% Activity vs. Control

>  <unit symbol>
%

>  <reported measurement>
279

$$$$
>  <molecule>
O=C(Nc1ccc2c(O)c(Br)c(S(=O)(=O)O)cc2c1)Nc1ccc2c(O)c(Br)c(S(=O)(=O)O)cc2c1 [Compound 16, disodium salt]

>  <quantity measured>
% Activity vs. Control

>  <unit symbol>
%

>  <reported measurement>
144

$$$$

Query: // % Activity vs. Control lookup, key: O=C(Nc1ccc2c(O)cc(S(=O)(=O)O)cc2c1)Nc1ccc2c(OCCCS(=O)(=O)O)cc(S(=O)(=O)O)cc2c1 [Compound 102]
Reply: 115

Query: // % Activity vs. Control lookup, key: O=C(Nc1ccc2c(OCc3ccccc3S(=O)(=O)O)cc(S(=O)(=O)O)cc2c1)Nc1ccc2c(OCc3ccccc3S(=O)(=O)O)cc(S(=O)(=O)O)cc2c1 [Compound 100]
Reply: 79
